biological target: human AHR (Homo sapiens, UniProt P35869); construct: endogenous in cells; host or cells: unnamed human cells carrying an AHR-dependent luciferase reporter; test: cell-based; type: cell-based
Sequence (P35869 11-848): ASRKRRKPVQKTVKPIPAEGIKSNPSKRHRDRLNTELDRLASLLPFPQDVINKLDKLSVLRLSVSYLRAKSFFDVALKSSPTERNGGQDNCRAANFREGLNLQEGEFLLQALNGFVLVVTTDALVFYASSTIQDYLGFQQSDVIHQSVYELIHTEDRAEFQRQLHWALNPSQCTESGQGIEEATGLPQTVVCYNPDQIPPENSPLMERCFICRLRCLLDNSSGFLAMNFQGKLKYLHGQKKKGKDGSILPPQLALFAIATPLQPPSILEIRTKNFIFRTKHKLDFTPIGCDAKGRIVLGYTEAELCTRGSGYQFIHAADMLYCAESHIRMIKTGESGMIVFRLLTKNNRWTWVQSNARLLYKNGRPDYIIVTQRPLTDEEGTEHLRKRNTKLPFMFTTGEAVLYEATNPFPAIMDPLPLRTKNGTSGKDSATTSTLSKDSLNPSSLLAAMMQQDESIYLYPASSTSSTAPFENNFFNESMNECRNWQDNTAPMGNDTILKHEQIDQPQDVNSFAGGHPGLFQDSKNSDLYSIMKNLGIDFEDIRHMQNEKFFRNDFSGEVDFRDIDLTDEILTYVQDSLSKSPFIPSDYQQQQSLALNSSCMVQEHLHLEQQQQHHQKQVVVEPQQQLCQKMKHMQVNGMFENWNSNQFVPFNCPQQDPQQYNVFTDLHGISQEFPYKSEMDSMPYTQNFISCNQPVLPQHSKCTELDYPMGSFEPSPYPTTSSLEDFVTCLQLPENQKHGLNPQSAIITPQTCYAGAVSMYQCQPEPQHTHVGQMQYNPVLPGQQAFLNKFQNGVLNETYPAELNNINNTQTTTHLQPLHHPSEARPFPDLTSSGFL
Assay metric: EC50
Number first, unit second: that is the form wanted.

Notebook: CC(C)n1cnc2c(NCCc3ccc(O)cc3)nc(-c3csc4ccccc34)nc21 [Example 1] , EC50 read as 127 nM

----------
Can you tell me EC50 for the items I'm about to list?
tested on: Primary adult CD34+ human hematopoietic stem cells (HSCs); assay: % CD34+ assay: HSC expansion screen, dose response; format: cell-based; conditions: Homo sapiens, Hematopoietic stem cell; dose response 1 nM to 10 μM; total number and/or percent of CD34+ cells
The figure you give is taken to be in nM; do not add the unit.

Notebook: Oc1ccc(CCNc2nc(-c3cccnc3)nc3c2ncn3[C@@H]2CCOC2)cc1 [Example 93R] , EC50 read as 520

Notebook: `CC(C)n1cnc2c(NCCc3c[nH]c4ccccc34)nc(-c3cccnc3)nc21` , EC50 read as 29

Notebook: `CC(C)n1cnc2c(NCCc3ccc(O)cc3)nc(-c3cncc(Cl)c3)nc21` , EC50 read as 19

Notebook: `CC(C)n1cnc2c(NCCc3n[nH]c4ccccc34)nc(-c3cccnc3)nc21` , EC50 read as 8200

Notebook: `Oc1ccc(CCNc2nc(-c3csc4ccccc34)nc3c2ncn3[C@H]2CCOC2)cc1` , EC50 read as 350

Notebook: `Cc1n[nH]c(SCCNc2nc(-c3cccnc3)nc3c2ncn3C(C)C)n1` , EC50 read as 6000

Notebook: `CC(C)n1cnc2c(NCCc3ccc(O)cc3)nc(-c3ccoc3)nc21` , EC50 read as 3900

Notebook: `CC(C)n1cnc2c(NCCc3cnc4[nH]ccc4c3)nc(-c3cccnc3)nc21` , EC50 read as 1600

Notebook: `Cc1cccc2c(CCNc3nc(-c4cncc(F)c4)nc4c3ncn4C(C)C)c[nH]c12` , EC50 read as 24

Notebook: `Fc1cncc(-c2nc(NCCc3c[nH]c4ccccc34)c3ncn(C4COC4)c3n2)c1` , EC50 read as 7

Notebook: `Cc1cccc2[nH]cc(CCNc3nc(-c4cncc(F)c4)nc4c3ncn4C(C)C)c12` , EC50 read as 11

Notebook: CC[C@H](C)n1cnc2c(NCCc3c[nH]c4ccccc34)nc(-c3cncc(F)c3)nc21 [Example 132S] , EC50 read as 2

Notebook: `Oc1ccc(CCNc2nc(-c3csc4ccccc34)nc3c2ncn3[C@@H]2CCOC2)cc1` , EC50 read as 220

Notebook: `CC(C)n1cnc2c(NCCc3ccc(O)cc3F)nc(-c3cccnc3)nc21` , EC50 read as 92

Notebook: `CC(C)n1cnc2c(NCCCc3cn[nH]c3)nc(-c3cccnc3)nc21` , EC50 read as 8200

Notebook: `CC(C)n1cnc2c(NCCc3ccc(F)cc3)nc(-c3csc4ccccc34)nc21` , EC50 read as 1760

Notebook: `CC(C)n1cnc2c(NCCc3ccc(OS(N)(=O)=O)cc3)nc(-c3cccnc3)nc21` , EC50 read as 1100

----------
system: Primary adult CD34+ human hematopoietic stem cells (HSCs); assay: % CD34+ assay: HSC expansion screen, dose response; format: cell-based; details: Homo sapiens, Hematopoietic stem cell; dose response 1 nM to 10 μM; total number and/or percent of CD34+ cells
pEC50: −log10 of the molar value.
Quick rule for you: pEC50 at 6 or higher means y, lower means n.

input: // inclusive: pEC50 at least 6? input: `CC(C)n1cnc2c(NCCNc3ccccn3)nc(-c3cccnc3)nc21`
output: n

input: // inclusive: pEC50 at least 6? input: `CC(C)n1cnc2c(NCCc3ccc(O)cc3)nc(N3CCCC3)nc21`
output: n

input: // inclusive: pEC50 at least 6? input: `CC(C)n1cnc2c(NCCc3ccc(O)cc3)nc(-n3cnc4cccnc43)nc21`
output: y

input: // inclusive: pEC50 at least 6? input: `CC(C)n1cnc2c(NCCc3ccc(O)cc3)nc(-c3ccccc3)nc21`
output: y

----------
test system: Primary adult CD34+ human hematopoietic stem cells (HSCs); test: % CD34+ assay: HSC expansion screen, dose response; assay type: cell-based; conditions: Homo sapiens, Hematopoietic stem cell; dose response 1 nM to 10 μM; total number and/or percent of CD34+ cells
Assay metric: EC50 (nM)
The figure you give is taken to be in nM; do not add the unit.

Notebook: CC(C)n1cnc2c(NCCc3c[nH]c4cccc(F)c34)nc(-c3cncc(F)c3)nc21 [Example 195] , EC50 read as 3

Notebook: Oc1ccc(CCNc2nc(-c3csc4ccccc34)nc3c2ncn3C(c2ccccc2)c2ccccc2)cc1 [Example 3] , EC50 read as 150

Notebook: COc1cncc(-c2nc(NCCc3ccc(O)cc3)c3ncn(C(C)C)c3n2)c1 [Example 33] , EC50 read as 270

Notebook: CC(C)n1cnc2c(NCCc3c[nH]c4ccccc34)nc(-c3csc4ccccc34)nc21 [Example 9] , EC50 read as 20

Notebook: Cc1ccncc1-c1nc(NCCc2ccc(O)cc2)c2ncn(C(C)C)c2n1 [Example 35] , EC50 read as 340

Notebook: CCCCCCCC(C)n1cnc2c(NCCc3ccc(O)cc3)nc(-c3csc4ccccc34)nc21 (centres unmarked) [Example 21] , EC50 read as 130

Notebook: CC(C)n1cnc2c(NCCc3ccc(O)nc3)nc(-c3cncc(F)c3)nc21 [Example 174] , EC50 read as 2200

Notebook: CC(C)n1cnc2c(NCCc3c[nH]c4ccc(Cl)cc34)nc(-c3cccnc3)nc21 [Example 148] , EC50 read as 750

Notebook: C[C@@H](CO)n1cnc2c(NCCc3c[nH]c4ccccc34)nc(-c3cncc(F)c3)nc21 [Example 157S] , EC50 read as 3

Notebook: CC(C)n1cnc2c(NCCc3ccc(O)cc3)nc(-c3cncc4ccccc34)nc21 [Example 145] , EC50 read as 5400

Notebook: CC[C@@H](C)n1cnc2c(NCCc3c[nH]c4ccccc34)nc(-c3cncc(C)c3)nc21 [Example 131R] , EC50 read as 3

Notebook: CC(C)n1cnc2c(N(C)CCc3ccc(O)cc3)nc(-c3cccnc3)nc21 [Example 99] , EC50 read as 7500

Notebook: CCCc1nccn1-c1nc(NCCc2ccc(O)cc2)c2ncn(C(C)C)c2n1 [Example 181] , EC50 read as 2500

Notebook: CC(C)n1ccc2c(NCCc3ccc(O)cc3)nc(-c3csc4ccccc34)nc21 [Example 198] , EC50 read as 1100

Notebook: Oc1ccc(CCNc2nc(-c3csc4ccccc34)nc3c2ncn3C2COC2)cc1 [Example 151] , EC50 read as 170

Notebook: CC(C)n1cnc2c(NCCc3ccc(O)cc3)nc(-c3cnccn3)nc21 [Example 43] , EC50 read as 2400

Notebook: Oc1ccc(CCNc2nc(-c3csc4ccccc34)nc3c2ncn3C2CCCOC2)cc1 (centres unmarked) [Example 4] , EC50 read as 1490

----------
tested on: Primary adult CD34+ human hematopoietic stem cells (HSCs); assay: % CD34+ assay: HSC expansion screen, dose response; type: cell-based; details: Homo sapiens, Hematopoietic stem cell; dose response 1 nM to 10 μM; total number and/or percent of CD34+ cells
pEC50: −log10 of the molar value.
Quick rule for you: pEC50 at 8 or higher means yes, lower means no.

input: // inclusive: pEC50 at least 8? input: CC[C@@H](C)n1cnc2c(NCCc3c[nH]c4ccccc34)nc(-c3cncc(F)c3)nc21 [Example 132R]
output: yes

input: // inclusive: pEC50 at least 8? input: CC(C)n1cnc2c(NCCc3ccsc3)nc(-c3csc4ccccc34)nc21 [Example 10]
output: no

input: // inclusive: pEC50 at least 8? input: CCC(C)n1cnc2c(NCCc3c[nH]c4ccccc34)nc(-c3cncc(C)c3)nc21 (stereo not drawn) [Example 131]
output: yes

input: // inclusive: pEC50 at least 8? input: Cn1cnc2c(NCCc3ccc(O)cc3)nc(-c3csc4ccccc34)nc21 [Example 7]
output: no

----------
tested on: Primary adult CD34+ human hematopoietic stem cells (HSCs); assay: % CD34+ assay: HSC expansion screen, dose response; format: cell-based; conditions: Homo sapiens, Hematopoietic stem cell; dose response 1 nM to 10 μM; total number and/or percent of CD34+ cells
Assay metric: pEC50
// pEC50 here means minus log10 of the molar concentration (mol/L)

Notebook: CC(C)n1cnc2c(NCCc3ccc(O)cc3)nc(-c3cncs3)nc21 [Example 120] , pEC50 read as 5.85

Notebook: CC(C)n1cnc2c(NCCc3cccnc3)nc(-c3cncc(F)c3)nc21 [Example 166] , pEC50 read as 5.12

Notebook: Cc1n[nH]c(C)c1CCCNc1nc(-c2csc3ccccc23)nc2c1ncn2C(C)C [Example 88] , pEC50 read as 5.59

Notebook: Cc1cncc(-c2nc(NCCc3ccc(O)cc3)c3ncn(C(C)C)c3n2)c1 [Example 45] , pEC50 read as 7.20

Notebook: CCC(C)n1cnc2c(NCCc3c[nH]c4ccccc34)nc(-c3csc4ccccc34)nc21 (centres unmarked) [Example 23] , pEC50 read as 7.72

Notebook: CCN(CC)CCOc1ccc2c(CCNc3nc(-c4cncc(F)c4)nc4c3ncn4C(C)C)c[nH]c2c1 [Example 176] , pEC50 read as 5.96

Notebook: CC(C)n1cnc2c(NCCc3ccc(O)cc3)nc(-c3cccnc3C#N)nc21 [Example 143] , pEC50 read as 5.37

Notebook: CC(C)n1cnc2c(NCCNc3ccccn3)nc(-c3csc4ccccc34)nc21 [Example 83] , pEC50 read as 5.15

Notebook: CC(C)n1cnc2c(NCCc3ccc(O)cc3)nc(-c3ccc(C#N)nc3)nc21 [Example 139] , pEC50 read as 5.89

Notebook: CC(C)n1cnc2c(NCCc3n[nH]c(N)n3)nc(-c3csc4ccccc34)nc21 [Example 82] , pEC50 read as 5.10

Notebook: CC(C)n1cnc2c(NCCc3ccc(O)cc3)nc(-c3cncc(F)c3)nc21 [Example 50] , pEC50 read as 7.47

Notebook: CCC(C)n1cnc2c(NCCc3ccc(O)c(C)c3)nc(-c3cncc(C#N)c3)nc21 (centres unmarked) [Example 124] , pEC50 read as 8.52

Notebook: CC(C)n1cnc2c(NCCc3ccc(O)cc3)nc(-c3ccccn3)nc21 [Example 44] , pEC50 read as 5.77

Notebook: Cc1cc(O)ccc1CCNc1nc(-c2cccnc2)nc2c1ncn2C(C)C [Example 138] , pEC50 read as 6.40

Notebook: CC(C)n1cnc2c(NCc3ccc4[nH]c(=O)[nH]c4c3)nc(-c3csc4ccccc34)nc21 [Example 90] , pEC50 read as 5.48

Notebook: CC(C)n1cnc2c(NCCc3ccc(O)cc3)nc(-n3ccnc3)nc21 [Example 40] , pEC50 read as 6.59

Notebook: CC(C)n1cnc2c(NCCc3c[nH]c4ccccc34)nc(-c3cncc(F)c3)nc21 [Example 170] , pEC50 read as 8.22
